This collection of values is drawn from BigSolDB 2.1.

conditions: in cyclohexane, 318.95 K
REPORTED ENDPOINT: solubility (mole fraction)

The reported value for CC(=O)c1c(O)ccc2ccccc12 in terms of solubility (mole fraction) is 0.132

###

details: in n-butanol, 299 K
REPORTED ENDPOINT: solubility (mole fraction)

The reported value for CC(=O)c1c(O)ccc2ccccc12 in terms of solubility (mole fraction) is 0.117

###

conditions: in cyclohexane, 313.55 K
REPORTED ENDPOINT: solubility (mole fraction)
Answer as a number with no unit attached.

The reported value for CC(=O)c1ccc2ccccc2c1O in terms of solubility (mole fraction) is 0.0222

###

conditions: in cyclohexane, 308.85 K
REPORTED ENDPOINT: solubility (mole fraction)
Answer as a number with no unit attached.

The reported value for CC(=O)c1c(O)ccc2ccccc12 in terms of solubility (mole fraction) is 0.0505

###

details: in n-heptane, 327.2 K
REPORTED ENDPOINT: solubility (mole fraction)
Answer as a number with no unit attached.

The reported value for CC(=O)c1ccc2ccccc2c1O in terms of solubility (mole fraction) is 0.0395

###

conditions: in cyclohexane, 333.95 K
REPORTED ENDPOINT: solubility (mole fraction)
Answer as a number with no unit attached.

The reported value for CC(=O)c1ccc2ccccc2c1O in terms of solubility (mole fraction) is 0.0679

###

details: in ethanol, 289.15 K
REPORTED ENDPOINT: solubility (mole fraction)

The reported value for CC(=O)c1ccc2ccccc2c1O in terms of solubility (mole fraction) is 0.0049

###

details: in cyclohexane, 337.6 K
REPORTED ENDPOINT: solubility (mole fraction)
Answer as a number with no unit attached.

The reported value for CC(=O)c1ccc2ccccc2c1O in terms of solubility (mole fraction) is 0.0872

###

details: in ethanol, 301.15 K
REPORTED ENDPOINT: solubility (mole fraction)
Answer as a number with no unit attached.

The reported value for CC(=O)c1c(O)ccc2ccccc12 in terms of solubility (mole fraction) is 0.135

###

conditions: in n-butanol, 307.95 K
REPORTED ENDPOINT: solubility (mole fraction)

The reported value for CC(=O)c1c(O)ccc2ccccc12 in terms of solubility (mole fraction) is 0.201

###

details: in n-hexane, 323.45 K
REPORTED ENDPOINT: solubility (mole fraction)
Answer as a number with no unit attached.

The reported value for CC(=O)c1c(O)ccc2ccccc12 in terms of solubility (mole fraction) is 0.0716

###

settings: in n-hexane, 286.55 K
REPORTED ENDPOINT: solubility (mole fraction)
Answer as a number with no unit attached.

The reported value for CC(=O)c1ccc2ccccc2c1O in terms of solubility (mole fraction) is 0.0056

###

conditions: in cyclohexane, 300.7 K
REPORTED ENDPOINT: solubility (mole fraction)

The reported value for CC(=O)c1c(O)ccc2ccccc12 in terms of solubility (mole fraction) is 0.0292

###

conditions: in cyclohexane, 304.8 K
REPORTED ENDPOINT: solubility (mole fraction)
Answer as a number with no unit attached.

The reported value for CC(=O)c1c(O)ccc2ccccc12 in terms of solubility (mole fraction) is 0.0379

###

conditions: in n-butanol, 318.15 K
REPORTED ENDPOINT: solubility (mole fraction)
Answer as a number with no unit attached.

The reported value for CC(=O)c1c(O)ccc2ccccc12 in terms of solubility (mole fraction) is 0.408

###

conditions: in n-heptane, 348.35 K
REPORTED ENDPOINT: solubility (mole fraction)
Answer as a number with no unit attached.

The reported value for CC(=O)c1ccc2ccccc2c1O in terms of solubility (mole fraction) is 0.116

###

conditions: in n-butanol, 303.75 K
REPORTED ENDPOINT: solubility (mole fraction)
Answer as a number with no unit attached.

The reported value for CC(=O)c1ccc2ccccc2c1O in terms of solubility (mole fraction) is 0.0144

###

settings: in n-hexane, 281.65 K
REPORTED ENDPOINT: solubility (mole fraction)

The reported value for CC(=O)c1ccc2ccccc2c1O in terms of solubility (mole fraction) is 0.0045

###

conditions: in cyclohexane, 320.35 K
REPORTED ENDPOINT: solubility (mole fraction)
Answer as a number with no unit attached.

The reported value for CC(=O)c1c(O)ccc2ccccc12 in terms of solubility (mole fraction) is 0.162

###

details: in n-butanol, 317.35 K
REPORTED ENDPOINT: solubility (mole fraction)
Answer as a number with no unit attached.

The reported value for CC(=O)c1c(O)ccc2ccccc12 in terms of solubility (mole fraction) is 0.389

###

settings: in n-hexane, 319.05 K
REPORTED ENDPOINT: solubility (mole fraction)
Answer as a number with no unit attached.

The reported value for CC(=O)c1c(O)ccc2ccccc12 in terms of solubility (mole fraction) is 0.0529

###

conditions: in ethanol, 331.2 K
REPORTED ENDPOINT: solubility (mole fraction)
Answer as a number with no unit attached.

The reported value for CC(=O)c1ccc2ccccc2c1O in terms of solubility (mole fraction) is 0.0313

###

settings: in n-hexane, 324.05 K
REPORTED ENDPOINT: solubility (mole fraction)
Answer as a number with no unit attached.

The reported value for CC(=O)c1ccc2ccccc2c1O in terms of solubility (mole fraction) is 0.0288

###

conditions: in n-butanol, 293.35 K
REPORTED ENDPOINT: solubility (mole fraction)
Answer as a number with no unit attached.

The reported value for CC(=O)c1c(O)ccc2ccccc12 in terms of solubility (mole fraction) is 0.0897

###

settings: in n-heptane, 338.55 K
REPORTED ENDPOINT: solubility (mole fraction)
Answer as a number with no unit attached.

The reported value for CC(=O)c1ccc2ccccc2c1O in terms of solubility (mole fraction) is 0.0627

###

conditions: in n-heptane, 299.9 K
REPORTED ENDPOINT: solubility (mole fraction)
Answer as a number with no unit attached.

The reported value for CC(=O)c1ccc2ccccc2c1O in terms of solubility (mole fraction) is 0.0123

###

details: in n-hexane, 319.55 K
REPORTED ENDPOINT: solubility (mole fraction)

The reported value for CC(=O)c1ccc2ccccc2c1O in terms of solubility (mole fraction) is 0.0236

###

settings: in n-heptane, 301.8 K
REPORTED ENDPOINT: solubility (mole fraction)

The reported value for CC(=O)c1c(O)ccc2ccccc12 in terms of solubility (mole fraction) is 0.0239

###

conditions: in cyclohexane, 312.6 K
REPORTED ENDPOINT: solubility (mole fraction)

The reported value for CC(=O)c1c(O)ccc2ccccc12 in terms of solubility (mole fraction) is 0.068

###

conditions: in n-butanol, 280.85 K
REPORTED ENDPOINT: solubility (mole fraction)
Answer as a number with no unit attached.

The reported value for CC(=O)c1ccc2ccccc2c1O in terms of solubility (mole fraction) is 0.0054

###

details: in n-butanol, 299.45 K
REPORTED ENDPOINT: solubility (mole fraction)
Answer as a number with no unit attached.

The reported value for CC(=O)c1ccc2ccccc2c1O in terms of solubility (mole fraction) is 0.012

###

settings: in cyclohexane, 300.65 K
REPORTED ENDPOINT: solubility (mole fraction)
Answer as a number with no unit attached.

The reported value for CC(=O)c1ccc2ccccc2c1O in terms of solubility (mole fraction) is 0.0114

###

conditions: in ethanol, 296.25 K
REPORTED ENDPOINT: solubility (mole fraction)

The reported value for CC(=O)c1ccc2ccccc2c1O in terms of solubility (mole fraction) is 0.0064

###

details: in n-hexane, 314.25 K
REPORTED ENDPOINT: solubility (mole fraction)
Answer as a number with no unit attached.

The reported value for CC(=O)c1ccc2ccccc2c1O in terms of solubility (mole fraction) is 0.0189

###

settings: in n-hexane, 305.45 K
REPORTED ENDPOINT: solubility (mole fraction)

The reported value for CC(=O)c1ccc2ccccc2c1O in terms of solubility (mole fraction) is 0.0129
